Sourced from PubChem BioAssay AID1159580

Assay: chemical genetic growth profiling, strain panel (AID 1159580);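 also: tested at 20 µM; growth read once vehicle control cultures reached saturation at 30 °C; lower values mean less growth of the strain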
Conditions: S. cerevisiae deletion strains, growth OD, locus YBL061C, strain skt5
Out of some 5,500 compounds screened, about 2,000 (36%) were called active. Roughly 18% stayed inconclusive and do not appear here. Rule as the data show it: active = normalized growth mostly below about 0.91 (no sharp cut-off); inconclusive = no clear call, values can overlap the other calls; inactive = mostly above about 0.92. This is one part of the list.
Pick one: y = active, n = inactive

Task item: Each compound tested received a call. Report the one for CC[C@]1(O)CC2CN(CCc3c([nH]c4ccccc34)[C@@](C(=O)OC)(c3cc4c(cc3OC)N(C=O)[C@H]3[C@@](O)(C(=O)OC)[C@H](OC(C)=O)[C@]5(CC)C=CCN6CC[C@]43[C@@H]65)C2)C1 (some centres not stated) .
Reply: n

Task item: I would be grateful if you could indicate the recorded call for `COc1ccc(/C=C/C(=O)c2ccc(O)cc2O)cc1` .
Reply: y

Task item: Call for entry `CCCN(CCC)CCc1cccc2c1CC(=O)N2` :
Reply: n

Task item: Identify the outcome logged in this assay for the compound shown: C#C[C@]1(O)CCC2C3CCc4cc(OC)ccc4C3CC[C@@]21C (some centres not stated)
Reply: n

Task item: Could you check what this test reported for `S=c1[nH]c2ccccc2s1` ?
Reply: n

Task item: Assay result, entry `O=C(O)c1cc(=O)c2c(OCC(O)COc3cccc4oc(C(=O)O)cc(=O)c34)cccc2o1` — outcome?
Reply: n

Task item: Give the logged outcome of this assay for the following compound: `CCn1cc(C(=O)O)c(=O)c2cc3c(cc21)OCO3`
Reply: n
